Source: the supplement of paper PMC9170038

Test system: MS2 coat protein
METHOD: apparent KD of MS2 coat protein; designed switch direction (-1 OFF switch, 1 ON switch): -1; higher = weaker reporter binding
MEASUREMENT_SETUP: Eterna round: R95; input ligand: FMN 200 uM

- SEQUENCE_STRING: "GGUUGGCGAGGAUAUACAUGAGGAUCACCCAUGUGAGAGAAAAACGUGAGGAAGAAAAGUAGAAGGCGCUGACG [salish99_ex3_r3_025] (puzzle: Exclusion 3)"
  apparent KD of MS2 coat protein: "36.4 nM"
- SEQUENCE_STRING: "GUGUAGUAAGGAUAUACAUGAGGAUCACCCAUGUGAGUAAGAUAGAAUAAGAUAAAGUGUAGAAGGUAUAGUGU [Excluse me!!! 16 - Jieux - Exclusion 3] (puzzle: Exclusion 3)"
  apparent KD of MS2 coat protein: "42.6 nM"
- SEQUENCE_STRING: "CCCAUGUCAGGAUAUCUAAGAGAGGAUCAGCCCUCUCCUCCGGAGAAGGGACAUGAGGAUCACCCAUGUAAAAC [Zasorequ] (puzzle: Exclusion 4)"
  apparent KD of MS2 coat protein: "30.5 nM"
- SEQUENCE_STRING: "GACCCAAGUGUUAGGAUAUCCAGUCGUGGGACCAGGGAGAAGGAACAUGAGGAUCACCCAUGUAAAAUAGAAAC [Anti] (puzzle: Brourd's mod of Exclusion 4)"
  apparent KD of MS2 coat protein: "137 nM"
- SEQUENCE_STRING: "CGGAGCGUAGGUAGGUUCAACAUGAGGAUCACCCAUGUCUCACAAGCUUUUUGCUCAUCUUAUUGUACCUUGGUGCU [Sensor v3, turn-off variant 1 (MOD of JL )] (puzzle: Sensor v3, turn-off variant 1)"
  apparent KD of MS2 coat protein: "117 nM"
- SEQUENCE_STRING: "AGUAGAUCUACGCUUGCGUGGAUCUGCAAUGCAAGUGUUACAUGAGGAUCACCCAUGUCCUCAUUUGCUCGUCUUAG [JL turnoff v2 99.05] (puzzle: Sensor v3, turn-off variant 2)"
  apparent KD of MS2 coat protein: "41.4 nM"
- SEQUENCE_STRING: "GUGUGCAGAGGAUAUACAGAGGAAAAUAAUAAAUAAUAUUGACAUGAGGAUCACCCAUGUAGAAGGCUGAGUGU [Excluse me!! 25 - Jieux - Exclusion 2] (puzzle: Exclusion 2)"
  apparent KD of MS2 coat protein: "38.3 nM"
- SEQUENCE_STRING: "CUUAGACAUGAGGAUCACCCAUGUGAGGAUAUGAUACAAUCAUACUAACAUAAUCACAUCAGAAGGCACAUAUG [Mat - Mod of JL D68] (puzzle: Exclusion 1)"
  apparent KD of MS2 coat protein: "34.6 nM"
- SEQUENCE_STRING: "GAAAAGGUAGGAUAUACGAAAAAAAAGGGUAGAAAAAAAACACAUGAGGAUCACCCAUGUAGAAGGACCAAAGG [salish99_ex2_r3_040] (puzzle: Exclusion 2)"
  apparent KD of MS2 coat protein: "46.3 nM"
- SEQUENCE_STRING: "GGAGAGUCAGGAUAUCGAAGGUAGAGAAGAGGAGAGUGGUACGAGAAGGGACAUGAGGAUCACCCAUGUAGGUG [JR_Exclusion4)Sub011] (puzzle: Exclusion 4)"
  apparent KD of MS2 coat protein: "457 nM"
- SEQUENCE_STRING: "UCAUACGGUGAGGAUAUCUCCGCUAAAGUGUGUAGAGAAGGCGCUACAUGAGGAUCACCCAUGUUUAUGGGCAG [Ex-6 Malc#12] (puzzle: Exclusion 6)"
  apparent KD of MS2 coat protein: "52.9 nM"

###

Tested on: MS2 coat protein
METHOD: apparent KD of MS2 coat protein; designed switch direction (-1 OFF switch, 1 ON switch): -1; higher = weaker reporter binding
MEASUREMENT_SETUP: input ligand: none

- SEQUENCE_STRING: "UCAUGUCCUGAGGAUAUGCAGCGGAUAAACGCAGCAGAAGGCAGGACAUGAGGAUCACCCAUGUGUGCCUUCUA [Exclusion 6 Mod5 of JL of Mod of Letion by ViennaUCT] (Eterna round: R97, puzzle: Exclusion 6)"
  apparent KD of MS2 coat protein, nM: 190
- SEQUENCE_STRING: "AGCUAGUCAGGAUAUACGUAAAUGUCGAAAGACGUAUUGGGACAUGAGGAUCACCCAUGUAGAAGGGACUAGCA [Mod of Janderson's WEB Mod v.1] (Eterna round: R96, puzzle: Exclusion 2)"
  apparent KD of MS2 coat protein, nM: 24.8
- SEQUENCE_STRING: "CCGGCUUAGGAGGAUAUCAGAGUCGAAAGACUCUGAGAAGGCCUAACAUGAGGAUCACCCAUGUGUCCUACCGG [Mod of Eli 7 - Jieux - Exclusion 6] (Eterna round: R97, puzzle: Exclusion 6)"
  apparent KD of MS2 coat protein, nM: 25.1
- SEQUENCE_STRING: "GUGAUCUAUCAUGGGAUAAACAUGAGGAUCACCCAUGUAGACAAGUUUUUUGCUCGUCUUAUAAUAAGAUAGAUCAC [Antenna 1 - Jieux - Sensor, turn-off variant 1] (Eterna round: R97, puzzle: Sensor, turn-off variant 1)"
  apparent KD of MS2 coat protein, nM: 39.4

###

System: MS2 coat protein
METHOD: apparent KD of MS2 coat protein; designed switch direction (-1 OFF switch, 1 ON switch): 1; higher = weaker reporter binding
MEASUREMENT_SETUP: input ligand: FMN 200 uM
Catalogue of apparent KD of MS2 coat protein readings, one per entry.

- SEQUENCE_STRING: "UAGAAACAUGAGGAUCACCCAUGUGGGUUAAACACAGGAUAUCACGCCAAAAGAAAAGCGUGAGAAGGGUGACCGA [Xeusisus] (Eterna round: R96, puzzle: Same State 1)"
  TESTED_ON: "MS2 coat protein"
  UNIT_OF_MEASURE: "nM"
  apparent KD of MS2 coat protein: 254
- SEQUENCE_STRING: "CCCGUCUACAGAAAGGUAGAUGGGAAUGUACAUGAGGAUCACCCAUGUUAAUAUGAGUUUGUUGAUAAUUAUGAAUU [Modxample 50 - Jieux - Sensor for bsa-mir-208a] (Eterna round: R96, puzzle: Sensor for hsa-mir-208a)"
  TESTED_ON: "MS2 coat protein"
  UNIT_OF_MEASURE: "nM"
  apparent KD of MS2 coat protein: 19.7
- SEQUENCE_STRING: "ACAUGAGAGCUAGGAUAUUUUGUACCUACAUGUGACAUGAGGAUCACCCAUGUGGUAAGUAUGAGAAAGAAGGAGCAGAUAUGU [Equivalance 53 - Jieux - Same State NG 2] (Eterna round: R96, puzzle: Same State NG 2)"
  TESTED_ON: "MS2 coat protein"
  UNIT_OF_MEASURE: "nM"
  apparent KD of MS2 coat protein: 14.9
- SEQUENCE_STRING: "AGGCUCAGACGAGGAUAUAUGUCUCGAGCUUCGGCUCGAGACAUGAGGAUCACCCAUGUAAUAACAUAGAAGGCGUCUGAGCCA [SSNG2/1-A1] (Eterna round: R96, puzzle: Same State NG 2)"
  TESTED_ON: "MS2 coat protein"
  UNIT_OF_MEASURE: "nM"
  apparent KD of MS2 coat protein: 15.7

###

System: MS2 coat protein
METHOD: apparent KD of MS2 coat protein, switch ON state; designed switch direction (-1 OFF switch, 1 ON switch): -1; higher = weaker reporter binding
MEASUREMENT_SETUP: FMN input: 0 or 200 uM; Eterna round: R93 (includes R88 designs)

- SEQUENCE_STRING: "AACAGUACAGGAUAUACAUGAGGAUCACCCAUGUGAAAAUUAAGUGGCGUACCACAAUGUAGAAGGGUACUGGA [Moding Maslow Revisited (73) 24]"
  apparent KD of MS2 coat protein / µM: 0.11
- SEQUENCE_STRING: "CUCAAGUGAGGAUAUUUAAGAAAAGAAGAGAAAGAAAAGAAAAAGAAGGCACAUGAGGAUCACCCAUGUAAGAA [EteRNA is fun!]"
  apparent KD of MS2 coat protein / µM: 0.0315
- SEQUENCE_STRING: "AAGAAGUCAGGAUAUCGAAGACAGACGAAAAGUCUGUCAAACGAGAAGGGACAUGAGGAUCACCCAUGUAAAGA [Mat - Exaclusion 4 - Eli mod - D73]"
  apparent KD of MS2 coat protein / µM: 0.0631
- SEQUENCE_STRING: "GGUUGGCGAGGAUAUACAUGAGGAUCACCCAUGUGAGAGAAAAAAGUGAGGAGGAGGAGUAGAAGGCGCUGACG [salish99-ex3-18]"
  apparent KD of MS2 coat protein / µM: 0.0284
- SEQUENCE_STRING: "AAAAAACAUGAGGAUCACCCAUGUGAGGAUAUCCUAAAGGGAAUAAAAUAACUCAAAAGGAGAAGGCGCAAAAA [Ex 1 May 31]"
  apparent KD of MS2 coat protein / µM: 0.0602
- SEQUENCE_STRING: "UCCAGACAUGAGGAUCACCCAUGUCAGGAUAUCUACAGAACCUCAUGUAAAAAACUGUAGAGAAGGGAUAUGAA [Design 97: Pseudoknot G]"
  apparent KD of MS2 coat protein / µM: 0.0167
